Listed here: items and their measured GI50.
System: RXF 393
method description: NCI tumour cell line growth inhibition, 48 h
Active and inactive are the calls of the source. Cut-off read from the data, not from the text of the source: active = GI50 up to about 1.1 µM and inactive = higher.

Clc1ccc(C2Nc3ccccc3C3=NCCN32)cc1 (stereo not given): 21.1 µM (inactive)
O=C1Nc2ccccc2Nc2ccncc21: > 100 µM (inactive)
O=C(O)C/C(=C\c1ccccc1)C(=O)O: > 100 µM (inactive)
COc1cc2ncnc(Nc3cccc(Br)c3)c2cc1OC: 11.5 µM (inactive)

Then this molecule:
Query :: Kindly indicate its recorded GI50. Item: N#CCCN(CCN(C(=O)Nc1ccccc1)c1ccccc1)C(=O)Nc1ccccc1
Result :: > 45.3 µM (inactive)

* * *

System: SN12C
method description: NCI tumour cell line growth inhibition, 48 h
Active and inactive are the calls of the source. Rule as the data show it: active = GI50 up to about 1.1 µM and inactive = higher.
Listed here: items and their measured GI50.

O=C1C(c2ccccc2)=C(c2ccccc2)C(c2ccc(Sc3ccc(C4=C(c5ccccc5)C(=O)C(c5ccccc5)=C4c4ccccc4)cc3)cc2)=C1c1ccccc1: > 100 µM (inactive)
O=C1CCC(=O)N1n1c(Cc2ccc(Cl)cc2)n[nH]c1=O: > 100 µM (inactive)

Then this compound:
Query :: Kindly indicate its recorded GI50. Item: CCOC(=O)N1CCc2cc(OC)c(OC)c3c2c1cc1cc(OC)c(OC)cc13
Result :: 4.62 µM (inactive)

* * *

System: NCI/ADR-RES
method description: NCI tumour cell line growth inhibition, 48 h
Calls of active or inactive are those of the source. Rule as the data show it: active = GI50 up to about 1.1 µM and inactive = higher.
observation type: GI50

Some compounds with recorded GI50:
O=C(O)C/C(=C\c1ccccc1)C(=O)O: > 100 µM (inactive)
O=c1c(C(c2ccc3c(c2)Cc2ccccc2-3)c2c(O)oc3ccccc3c2=O)c(O)oc2ccccc12: > 100 µM (inactive)
Cc1ccc([S+]([O-])/C=C(\NC(=O)OCc2ccccc2)C(F)(F)F)cc1 (stereo not drawn): 33.1 µM (inactive)

Query :: Kindly indicate its recorded GI50. Item: C1#Cc2ccccc2OCCOc2ccccc2C#Cc2ccccc2OCCOc2ccccc21
Result :: 29.4 µM (inactive)

Query :: Kindly indicate its recorded GI50. Item: CC[C@]12C=CCN3CC[C@@]4(c5cc(N=O)c(OC)cc5N(C)[C@H]4[C@@](O)(C(=O)OC)[C@@H]1OC(C)=O)[C@@H]32
Result :: > 100 µM (inactive)

* * *

Listed here: items and their measured GI50.
Tested on: HCT-15
method description: NCI tumour cell line growth inhibition, 48 h

Some molecules with recorded GI50:
Brc1ccc2nc(-c3cccs3)nc(N3CCN(c4ccccc4)CC3)c2c1: > 100 µM
C1#Cc2ccccc2OCCOc2ccccc2C#Cc2ccccc2OCCOc2ccccc21: > 100 µM
COc1ccc(NC(=O)CC(=O)NN)cc1: > 100 µM
COC(=O)c1cc(C)ccc1CC(Cc1cccc(C)c1)C(=O)OC (stereo unspecified): > 100 µM
O=C1Nc2nccnc2C(=O)N2CCC[C@@H]12: > 100 µM
NNC(=O)c1cccc2c1Oc1ccccc1S2: > 100 µM

Query :: Kindly indicate its recorded GI50. Item: C=Nc1ccc([N+](=O)[O-])cc1
Result :: > 60.1 µM

Query :: Kindly indicate its recorded GI50. Item: C=C1C(NC)CCC23CC24CCC2(C)C(C(C)=O)C(O)CC2(C)C4CCC13 (stereo unspecified)
Result :: > 100 µM

Query :: Kindly indicate its recorded GI50. Item: Oc1c(C(O)c2ccccn2)ccc2ccccc12 (stereo unspecified)
Result :: 22.1 µM

* * *

System: U-251
method description: NCI tumour cell line growth inhibition, 48 h
Calls of active or inactive are those of the source. No stated cut-off is given here; in the data, active = GI50 up to about 1.1 µM and inactive = higher.
Listed here: items and their measured GI50.

Some compounds with recorded GI50:
CCC1=CCC(P(=O)(c2ccccc2)c2ccccc2)CC1C (stereo not drawn): 46.1 µM (inactive)
CN1C(=O)CN2C(Cl)(Cl)C2(c2ccccc2)c2cc(Cl)ccc21 (stereo not drawn): > 100 µM (inactive)
NC(=O)C1CCN(Cc2c(Cl)c(Cl)c(CN3CCC(C(N)=O)CC3)c(Cl)c2Cl)CC1: 34.8 µM (inactive)
C/C(=N\O)c1ccc2ccc3ccccc3c2c1: 29.8 µM (inactive)
OCc1nnn2c1CCC2: > 100 µM (inactive)

Query :: Provide GI50, tested on U-251, for CN(C)CCCN1c2ccc3ccccc3c2Sc2cccc(Cl)c21 .
Result :: 2.18 µM (inactive)

Query :: Provide GI50, tested on U-251, for Cc1cc2occ(-c3ccc(Cl)cc3)c2c(=O)o1 .
Result :: > 100 µM (inactive)

Query :: Provide GI50, tested on U-251, for Oc1c(NCn2nc(CCCCCCCCc3nn(CNc4ccc5ccccc5c4O)c(=S)o3)oc2=S)ccc2ccccc12 .
Result :: 86.5 µM (inactive)

* * *

System: UO-31
method description: NCI tumour cell line growth inhibition, 48 h
Calls of active or inactive are those of the source. Cut-off read from the data, not from the text of the source: active = GI50 up to about 1.1 µM and inactive = higher.
observation type: GI50

Some compounds with recorded GI50:
O=C1c2cc3ncsc3cc2C(=O)c2c(O)ccc(O)c21: > 100 µM (inactive)
COc1cccc2c1C(=O)c1c(O)c3c(c(O)c1C2=O)C[C@@](O)(C(=O)CO)C[C@@H]3OC1CC(N)C(OC)C(C)O1 (stereo partly drawn): 0.437 µM (active)
O=C1CN(C(=O)c2ccccc2)Cc2[nH]c3ccccc3c21: > 100 µM (inactive)
O=C(O)CCC1NC(/C(=C/c2ccccc2O)NC(=O)c2ccccc2)OC1=O (stereo not drawn): 18 µM (inactive)

Query :: Kindly indicate its recorded GI50. Item: CCCCCCCCCC(=O)NC(CCC(=O)N(CCNC(=O)c1nc(-c2ccccc2)oc1-c1ccccc1)Cc1ccccc1)C(=O)O (stereo not drawn)
Result :: 15.2 µM (inactive)

Query :: Kindly indicate its recorded GI50. Item: C[C@]12CC[C@H](O)CC1=CC[C@@H]1[C@@H]2CC[C@]2(C)C(=O)/C(=C/c3ccc([N+](=O)[O-])cc3)C[C@@H]12
Result :: 11 µM (inactive)

Query :: Kindly indicate its recorded GI50. Item: Nc1nc(F)nc2c1ncn2C1OC(CO)C(O)C1O (stereo not drawn)
Result :: 11.1 µM (inactive)

* * *

System: SR
method description: NCI tumour cell line growth inhibition, 48 h
Activity calls are given as the source filed them. No stated cut-off is given here; in the data, active = GI50 up to about 1.1 µM and inactive = higher.
observation type: GI50

Some molecules with recorded GI50:
N[C@H]1C2C3CC4C5CC(C42)C1(c1ccccc1)C53 (some centres undefined): > 100 µM (inactive)
CCN(CC)CCSc1nc2c(c(=N)n1-c1ccccc1)c(=S)n(-c1ccccc1)c(=S)n2-c1ccccc1: 0.257 µM (active)
S=c1sc2cscc2s1: 27.8 µM (inactive)
O=c1[nH]c2ccccc2cc1C(Cl)=C(Cl)Cl: > 100 µM (inactive)
Cc1ccc2nc3sc(=O)sc3nc2c1 [CHINOMETHIONAT]: 21.1 µM (inactive)
CN(CCCNC(=O)c1nn(C)c2c1Cc1ccccc1-2)CCCNC(=O)c1nn(C)c2c1Cc1ccccc1-2: 2.99 µM (inactive)
CO[C@H]1O[C@@H]2CO[C@@H](c3ccccc3)O[C@H]2C[C@]12CCC/C=C\CO2: 13.7 µM (inactive)
COC(=O)[C@H](C)N(C)C(=O)[C@H](C)N1[C@@H](c2ccccc2)COC1(C)C: > 100 µM (inactive)

Query :: Provide GI50, tested on SR, for CO/N=C(/C(=O)OC)c1ccccc1COc1ccccc1C(F)(F)F .
Result :: 8.32 µM (inactive)

Query :: Provide GI50, tested on SR, for COc1c(O)c(O)c2c(c1O)C(=O)c1cc(C)cc(O)c1C2=O .
Result :: 31.6 µM (inactive)

Query :: Provide GI50, tested on SR, for CC1C[C@]2(C)C(=O)Nc3ccccc3[C@@H]2Nc2ccccc21 (some centres undefined) .
Result :: 16.2 µM (inactive)

Query :: Provide GI50, tested on SR, for Nc1c(Cl)ncnc1NCC1(CO)CCC1 .
Result :: > 100 µM (inactive)

Query :: Provide GI50, tested on SR, for O=C1C2Cc3c(n(C(=O)c4ccccc4)c4ccccc34)CC2C(=O)N1c1ccc(Nc2ccc(N3C(=O)C4Cc5c(n(C(=O)c6ccccc6)c6ccccc56)CC4C3=O)cc2)cc1 (centres undefined) .
Result :: 44.4 µM (inactive)

Query :: Provide GI50, tested on SR, for COc1ccc2[nH]c(Cl)c(/C=C3/C(=O)Nc4cc(C)c(OC)cc43)c2c1 .
Result :: 3.08 µM (inactive)

* * *

Tested on: UO-31
method description: NCI tumour cell line growth inhibition, 48 h
Activity calls are given as the source filed them. Cut-off read from the data, not from the text of the source: active = GI50 up to about 1.1 µM and inactive = higher.
Listed here: items and their measured GI50.

O=P12N(CCN1c1ccccc1)CCN2c1ccccc1: > 100 µM (inactive)

Query :: Kindly indicate its recorded GI50. Item: CCc1cccc(C)c1NC(=O)C(=O)Cc1nc2ccccc2s1
Result :: > 100 µM (inactive)

Query :: Kindly indicate its recorded GI50. Item: c1ccc2c(c1)CCN(C1=NCCO1)C2
Result :: > 10 µM (inactive)

Query :: Kindly indicate its recorded GI50. Item: CCN(CC)CCNCc1cc(Cl)cc2c1OCOC2
Result :: > 10 µM (inactive)

Query :: Kindly indicate its recorded GI50. Item: FC(F)(F)c1cc(Cl)cnc1N/N=C(/c1ccccc1)c1ccccn1
Result :: 2.94 µM (inactive)

Query :: Kindly indicate its recorded GI50. Item: C#C[C@]1(O)CC[C@H]2[C@@H]3CCC4=C/C(=N\OCCN5CCCC5)CC[C@]4(C)[C@H]3CC[C@@]21C
Result :: 15.7 µM (inactive)
